SYSTEM_UNDER_TEST: AcrB efflux pump in E. coli BW25113 (Escherichia coli, UniProt P31224)
Construct: endogenous in cells; host or cells: E. coli BW25113 (wild type)
Sequence (P0AE06 25-397): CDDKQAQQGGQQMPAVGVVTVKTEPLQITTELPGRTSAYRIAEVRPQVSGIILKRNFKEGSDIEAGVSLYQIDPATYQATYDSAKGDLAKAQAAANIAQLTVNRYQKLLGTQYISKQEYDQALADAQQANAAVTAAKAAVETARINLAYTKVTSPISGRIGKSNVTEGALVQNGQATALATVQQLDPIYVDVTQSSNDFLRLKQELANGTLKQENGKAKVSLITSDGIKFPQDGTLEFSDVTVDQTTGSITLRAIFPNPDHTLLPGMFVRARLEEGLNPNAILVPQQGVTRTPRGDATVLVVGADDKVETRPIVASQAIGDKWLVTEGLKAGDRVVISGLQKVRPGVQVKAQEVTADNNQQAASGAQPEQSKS
Sequence (P31224 whole entry): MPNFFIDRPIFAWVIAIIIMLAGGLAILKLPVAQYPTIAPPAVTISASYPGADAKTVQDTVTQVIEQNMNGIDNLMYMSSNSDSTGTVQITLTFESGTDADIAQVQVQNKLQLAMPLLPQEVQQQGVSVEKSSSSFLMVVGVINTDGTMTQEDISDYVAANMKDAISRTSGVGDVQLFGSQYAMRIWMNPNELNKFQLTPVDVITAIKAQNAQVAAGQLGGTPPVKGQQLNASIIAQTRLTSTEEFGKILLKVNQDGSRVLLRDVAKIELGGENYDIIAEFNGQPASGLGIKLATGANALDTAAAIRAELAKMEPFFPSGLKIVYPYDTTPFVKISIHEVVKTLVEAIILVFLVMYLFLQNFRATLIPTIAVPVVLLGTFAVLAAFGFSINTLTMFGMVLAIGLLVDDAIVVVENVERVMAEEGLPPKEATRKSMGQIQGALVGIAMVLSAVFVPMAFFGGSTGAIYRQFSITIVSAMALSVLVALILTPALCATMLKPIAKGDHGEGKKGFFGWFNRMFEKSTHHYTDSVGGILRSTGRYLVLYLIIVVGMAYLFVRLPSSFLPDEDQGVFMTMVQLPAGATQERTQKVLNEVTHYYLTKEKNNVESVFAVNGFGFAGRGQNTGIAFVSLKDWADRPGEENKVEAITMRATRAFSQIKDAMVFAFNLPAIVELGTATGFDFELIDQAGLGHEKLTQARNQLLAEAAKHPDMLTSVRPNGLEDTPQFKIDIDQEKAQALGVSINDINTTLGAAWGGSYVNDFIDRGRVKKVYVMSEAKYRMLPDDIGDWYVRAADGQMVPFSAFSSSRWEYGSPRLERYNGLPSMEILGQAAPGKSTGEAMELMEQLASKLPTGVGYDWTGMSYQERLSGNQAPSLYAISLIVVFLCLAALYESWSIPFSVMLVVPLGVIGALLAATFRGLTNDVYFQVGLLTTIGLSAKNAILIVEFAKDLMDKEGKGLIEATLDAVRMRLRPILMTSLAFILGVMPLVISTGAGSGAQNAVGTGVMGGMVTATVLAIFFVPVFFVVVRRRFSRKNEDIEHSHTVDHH
Sequence (P02930 23-493, further chain): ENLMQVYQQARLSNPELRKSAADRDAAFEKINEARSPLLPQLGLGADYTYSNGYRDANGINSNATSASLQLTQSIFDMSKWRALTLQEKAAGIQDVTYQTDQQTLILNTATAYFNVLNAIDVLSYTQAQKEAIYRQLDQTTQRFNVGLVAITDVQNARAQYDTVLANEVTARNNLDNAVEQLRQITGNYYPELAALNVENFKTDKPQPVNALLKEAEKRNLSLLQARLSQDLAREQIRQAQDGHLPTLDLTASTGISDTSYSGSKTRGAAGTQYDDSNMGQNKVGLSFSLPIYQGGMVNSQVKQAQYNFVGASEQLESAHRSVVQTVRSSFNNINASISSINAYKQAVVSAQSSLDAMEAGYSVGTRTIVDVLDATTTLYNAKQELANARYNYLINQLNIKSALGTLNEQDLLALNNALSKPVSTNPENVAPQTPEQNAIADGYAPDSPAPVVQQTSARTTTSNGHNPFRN
ASSAY_PROTOCOL: Nile red efflux assay (whole-cell competition)
Format: cell-based
SETUP_CONDITIONS: 81µM compound
Each entry below carries its reported Tefflux50.

| LINE_NOTATION | Tefflux50 |
| --- | --- |
| COc1cc(-c2csc(NC(=O)c3ccc([N+](=O)[O-])s3)n2)ccc1Cl | 104.21 s |
| O=C(Nc1nc(-c2ccc(F)cc2F)cs1)c1ccc([N+](=O)[O-])s1 | 68.06 s |
| Cc1sc(NC(=O)c2ccc([N+](=O)[O-])s2)nc1-c1ccccc1 | 200 s |
| O=C(Nc1nc(-c2ccc(F)cc2)cs1)c1ccc([N+](=O)[O-])s1 | 124.25 s |

###

SYSTEM_UNDER_TEST: AcrB efflux pump in E. coli BW25113 (Escherichia coli, UniProt P31224)
Construct: endogenous in cells; host or cells: E. coli BW25113 (wild type)
ASSAY_PROTOCOL: Nile red efflux assay (whole-cell competition)
Format: cell-based
SETUP_CONDITIONS: 1µM compound; time for 50% of Nile red to be effluxed, read for 200 seconds

| LINE_NOTATION | Tefflux50 [s] |
| --- | --- |
| Cc1sc(NC(=O)c2ccc([N+](=O)[O-])s2)nc1-c1ccccc1 | 88.05 |
| O=C(Nc1nc(-c2ccc(F)cc2)cs1)c1ccc([N+](=O)[O-])s1 | 61.52 |
| COc1cc(-c2csc(NC(=O)c3ccc([N+](=O)[O-])s3)n2)ccc1Cl | 69.24 |
| O=C(Nc1nc(-c2ccc(F)cc2F)cs1)c1ccc([N+](=O)[O-])s1 | 66.41 |

###

Each entry below carries its reported MIC.
System: E. coli clinical isolates
ASSAY_PROTOCOL: MIC on panel of E. coli clinical isolates
Format: cell-based
SETUP_CONDITIONS: strain SEC004
EXPERIMENTAL_READOUT: MIC (µg/mL)

| COMPOUND | CENSORING_QUALIFIER | READING |
| --- | --- | --- |
| O=C(Nc1nc(-c2ccc(F)cc2F)cs1)c1ccc([N+](=O)[O-])s1 | = | 32 |
| C[C@@H](O)[C@H]1C(=O)N2C(C(=O)O)=C(S[C@@H]3CN[C@H](C(=O)N(C)C)C3)[C@H](C)[C@H]12 [meropenem, reference compound] | > | 4 |
| O=C(Nc1nc(-c2ccc(F)cc2)cs1)c1ccc([N+](=O)[O-])s1 | = | 1 |
| CNC(C)C1CCC(N)C(OC2C(N)CC(N)C(OC3OCC(C)(O)C(NC)C3O)C2O)O1 (stereo not drawn) [gentamicin, reference compound] | = | 4 |
| O=C1CN(/N=C/c2ccc([N+](=O)[O-])o2)C(=O)N1 [nitrofurantoin, reference compound] | = | 80 |
| COc1cc(-c2csc(NC(=O)c3ccc([N+](=O)[O-])s3)n2)ccc1Cl | = | 8 |

###

ASSAY_PROTOCOL: Oral pharmacokinetics
Type: in vivo, BALB/c mice
SETUP_CONDITIONS: BALB/c, mouse, plasma; oral 100 mg/kg vs IV 2 mg/kg

| LINE_NOTATION | bioavailability, % |
| --- | --- |
| O=C(Nc1nc(-c2ccc(F)cc2)cs1)c1ccc([N+](=O)[O-])s1 | 22.6 |
